Tested on: PANC-1 tumor model
Experiment: Tissue distribution in nude mice (PANC-1 tumor model)
Assay type: in vivo, BALB/c nu/nu mice
Details: nude mice (PANC-1 tumor model), 1 h after injection
Answer each item with its documented Tissue distribution, Pancreas.
Just the number please, in %ID/g, no unit attached.

I'm curious: which Tissue distribution, Pancreas was measured for COc1ccc(C[C@@](C)(N)C(=O)O)cc1[211At] [^211At-AAMT-O-Me-D] tested on PANC-1 tumor model?
0.61

I'm curious: which Tissue distribution, Pancreas was measured for COc1ccc(C[C@](C)(N)C(=O)O)cc1[211At] [^211At-AAMT-O-Me-L] tested on PANC-1 tumor model?
0.58

I'm curious: which Tissue distribution, Pancreas was measured for CCOc1ccc(C[C@](C)(N)C(=O)O)cc1[211At] [^211At-AAMT-O-Et-L] tested on PANC-1 tumor model?
4.56

I'm curious: which Tissue distribution, Pancreas was measured for CCCOc1ccc(C[C@](C)(N)C(=O)O)cc1[211At] [^211At-AAMT-O-Pr-L] tested on PANC-1 tumor model?
3.54

* * *

Tested on: PANC-1 tumor model
Experiment: Tissue distribution in nude mice (PANC-1 tumor model)
Assay type: in vivo, BALB/c nu/nu mice
Conditions: nude mice (PANC-1 tumor model), 1 h after injection
Answer each item with its documented Tissue distribution, Liver.
Just the number please, in %ID/g, no unit attached.

Item under review: COc1ccc(C[C@@](C)(N)C(=O)O)cc1[211At] [^211At-AAMT-O-Me-D] . Reported Tissue distribution, Liver?
3.09

Item under review: COc1ccc(C[C@](C)(N)C(=O)O)cc1[211At] [^211At-AAMT-O-Me-L] . Reported Tissue distribution, Liver?
4.92

Item under review: CCOc1ccc(C[C@](C)(N)C(=O)O)cc1[211At] [^211At-AAMT-O-Et-L] . Reported Tissue distribution, Liver?
2.54

Item under review: CCCOc1ccc(C[C@](C)(N)C(=O)O)cc1[211At] [^211At-AAMT-O-Pr-L] . Reported Tissue distribution, Liver?
2.41

* * *

Test system: PANC-1 tumor model
Experiment: Tissue distribution in nude mice (PANC-1 tumor model)
Type: in vivo, BALB/c nu/nu mice
Settings: nude mice (PANC-1 tumor model), 1 h after injection
Answer each item with its documented Tissue distribution, Bladder.
Just the number please, in %ID/g, no unit attached.

I'm curious: which Tissue distribution, Bladder was measured for COc1ccc(C[C@](C)(N)C(=O)O)cc1[211At] [^211At-AAMT-O-Me-L] tested on PANC-1 tumor model?
0.06

I'm curious: which Tissue distribution, Bladder was measured for CCOc1ccc(C[C@](C)(N)C(=O)O)cc1[211At] [^211At-AAMT-O-Et-L] tested on PANC-1 tumor model?
15.41

I'm curious: which Tissue distribution, Bladder was measured for COc1ccc(C[C@@](C)(N)C(=O)O)cc1[211At] [^211At-AAMT-O-Me-D] tested on PANC-1 tumor model?
1.76

I'm curious: which Tissue distribution, Bladder was measured for CCCOc1ccc(C[C@](C)(N)C(=O)O)cc1[211At] [^211At-AAMT-O-Pr-L] tested on PANC-1 tumor model?
18.00

* * *

Answer each item with its documented Tissue distribution, Stomach.
Experiment: Tissue distribution in ICR mice (normal animals)
Type: in vivo
Conditions: 3 h after injection
Just the number please, in %ID/g, no unit attached.

Item under review: CCCOc1ccc(C[C@](C)(N)C(=O)O)cc1[211At] [^211At-AAMT-O-Pr-L] . Reported Tissue distribution, Stomach?
32.05

Item under review: CCOc1ccc(C[C@](C)(N)C(=O)O)cc1[211At] [^211At-AAMT-O-Et-L] . Reported Tissue distribution, Stomach?
38.74

Item under review: COc1ccc(C[C@@](C)(N)C(=O)O)cc1[211At] [^211At-AAMT-O-Me-D] . Reported Tissue distribution, Stomach?
8.08

Item under review: COc1ccc(C[C@](C)(N)C(=O)O)cc1[211At] [^211At-AAMT-O-Me-L] . Reported Tissue distribution, Stomach?
16.96

* * *

Answer each item with its documented Tissue distribution, Small intestine.
Test: Tissue distribution in ICR mice (normal animals)
Assay type: in vivo
Details: 3 h after injection
Just the number please, in %ID/g, no unit attached.

Item under review: CCOc1ccc(C[C@](C)(N)C(=O)O)cc1[211At] [^211At-AAMT-O-Et-L] . Reported Tissue distribution, Small intestine?
3.21

Item under review: CCCOc1ccc(C[C@](C)(N)C(=O)O)cc1[211At] [^211At-AAMT-O-Pr-L] . Reported Tissue distribution, Small intestine?
1.92

Item under review: COc1ccc(C[C@@](C)(N)C(=O)O)cc1[211At] [^211At-AAMT-O-Me-D] . Reported Tissue distribution, Small intestine?
5.33

Item under review: COc1ccc(C[C@](C)(N)C(=O)O)cc1[211At] [^211At-AAMT-O-Me-L] . Reported Tissue distribution, Small intestine?
3.91

* * *

Answer each item with its documented Tissue distribution, Blood.
Test system: PANC-1 tumor model
Test: Tissue distribution in nude mice (PANC-1 tumor model)
Type: in vivo, BALB/c nu/nu mice
Conditions: nude mice (PANC-1 tumor model), 1 h after injection

Item under review: CCCOc1ccc(C[C@](C)(N)C(=O)O)cc1[211At] [^211At-AAMT-O-Pr-L] . Reported Tissue distribution, Blood?
3.09 ± 0.25 %ID/g

Item under review: COc1ccc(C[C@](C)(N)C(=O)O)cc1[211At] [^211At-AAMT-O-Me-L] . Reported Tissue distribution, Blood?
7.85 ± 1.17 %ID/g

Item under review: COc1ccc(C[C@@](C)(N)C(=O)O)cc1[211At] [^211At-AAMT-O-Me-D] . Reported Tissue distribution, Blood?
3.52 ± 1.89 %ID/g

Item under review: CCOc1ccc(C[C@](C)(N)C(=O)O)cc1[211At] [^211At-AAMT-O-Et-L] . Reported Tissue distribution, Blood?
3.63 ± 0.43 %ID/g

* * *

Answer each item with its documented Tissue distribution, Tumor.
Test system: PANC-1 tumor model
Assay: Tissue distribution in nude mice (PANC-1 tumor model)
Assay type: in vivo, BALB/c nu/nu mice
Settings: nude mice (PANC-1 tumor model), 1 h after injection
Just the number please, in %ID/g, no unit attached.

Item under review: CCOc1ccc(C[C@](C)(N)C(=O)O)cc1[211At] [^211At-AAMT-O-Et-L] . Reported Tissue distribution, Tumor?
5.64

Item under review: CCCOc1ccc(C[C@](C)(N)C(=O)O)cc1[211At] [^211At-AAMT-O-Pr-L] . Reported Tissue distribution, Tumor?
9.45

Item under review: COc1ccc(C[C@](C)(N)C(=O)O)cc1[211At] [^211At-AAMT-O-Me-L] . Reported Tissue distribution, Tumor?
7.83

Item under review: COc1ccc(C[C@@](C)(N)C(=O)O)cc1[211At] [^211At-AAMT-O-Me-D] . Reported Tissue distribution, Tumor?
3.25

* * *

Experiment: Tissue distribution in ICR mice (normal animals)
Format: in vivo
Conditions: 1 h after injection
Answer each item with its documented Tissue distribution, Spleen.
Just the number please, in %ID/g, no unit attached.

Item under review: CCOc1ccc(C[C@](C)(N)C(=O)O)cc1[211At] [^211At-AAMT-O-Et-L] . Reported Tissue distribution, Spleen?
2.90

Item under review: CCCOc1ccc(C[C@](C)(N)C(=O)O)cc1[211At] [^211At-AAMT-O-Pr-L] . Reported Tissue distribution, Spleen?
4.11

Item under review: COc1ccc(C[C@](C)(N)C(=O)O)cc1[211At] [^211At-AAMT-O-Me-L] . Reported Tissue distribution, Spleen?
5.01

Item under review: COc1ccc(C[C@@](C)(N)C(=O)O)cc1[211At] [^211At-AAMT-O-Me-D] . Reported Tissue distribution, Spleen?
2.92

* * *

Test: Tissue distribution in ICR mice (normal animals)
Assay type: in vivo
Conditions: 3 h after injection
Readout: Tissue distribution, Thymus (%ID/g)
Just the number please, in %ID/g, no unit attached.

Item under review: CCOc1ccc(C[C@](C)(N)C(=O)O)cc1[211At] [^211At-AAMT-O-Et-L] . Reported Tissue distribution, Thymus?
0.26

Item under review: COc1ccc(C[C@@](C)(N)C(=O)O)cc1[211At] [^211At-AAMT-O-Me-D] . Reported Tissue distribution, Thymus?
0.18

Item under review: COc1ccc(C[C@](C)(N)C(=O)O)cc1[211At] [^211At-AAMT-O-Me-L] . Reported Tissue distribution, Thymus?
0.14

Item under review: CCCOc1ccc(C[C@](C)(N)C(=O)O)cc1[211At] [^211At-AAMT-O-Pr-L] . Reported Tissue distribution, Thymus?
1.76
